Each entry below lists one item and its recorded inhibition at 0.3 µg/mL value.
System: neurons isolated from the cerebrum
Assay: Naturally occurring neuronal death suppressing action (serum-free cultivation, Crystal Violet)
Format: cell-based, embryonic day 16 rats
Conditions: Rattus norvegicus, Neuron, 72 h; 0.3 μg/ml; serum-free, 3 days; read-out: Suppression of Naturally Occurring Neuronal Death

compound	inhibition at 0.3 µg/mL (%)
NC1CCc2c(-c3ccccc3)[nH]c3ccc(O)c1c23 (stereo not shown)	64
Cc1ccc(-c2[nH]c3cccc4c3c2CCC4N)cc1 (stereo not shown)	59
NC1CCc2c(-c3ccc(Cl)cc3)[nH]c3c(Cl)ccc1c23 (stereo not shown)	56
NC1CCc2c(-c3ccccc3O)[nH]c3cccc1c23 (stereo not shown)	100
